The values you see were collected from the MegaScale stability set (Tsuboyama et al. 2023).

B1: HEEH_KT_rd6_3546 (parent)
chain: SEEDKEREHWERLNRDFELRVLDTTFIAHHAEEVIKLLRWLEK

Variants of: B1
Experiment: folding stability dG (cDNA display proteolysis); higher = more stable
Conditions: PBS, room temperature
readout: folding stability dG (kcal/mol)
Only the number, expressed in kcal/mol, is required.

Field: example entries. Status: answers known.
variantKey | folding stability dG, kcal/mol
E42A | 1.82
W10F | 1.32
L19V | 1.05
N14S | 1.96
R12E | 1.17

Now, please, on to the next variant.
Ask: Any idea what its folding stability dG is? The variant is E8R
Result: 1.34
